- ASSAY SUMMARY: Cytotoxicity in tissue culture (HeLa monolayers)
- Assay type: cell-based
- SETTINGS: human; HeLa cells; observed at 48 and 72 hours post-treatment; read-out: Cytotoxicity (concentration of the compound found to be toxic to the cell)
QUANTITY NAME: MCC (µg/mL)
Express your answer in µg/mL, writing the number without its unit.

Take a look at these entries with their results.
smiles_representation=N#Cc1cc([N+](=O)[O-])ccc1Oc1c(F)c(F)cc(F)c1F quantity_name=MCC measured_value=12.5
smiles_representation=N#Cc1cc([N+](=O)[O-])ccc1Sc1ccc(Cl)c(Cl)c1 quantity_name=MCC measured_value=10

For the next question, use this compound.
Look up MCC for this compound: N#Cc1cc([N+](=O)[O-])ccc1Oc1ccc(F)cc1
10
